target: T1, HER2-ECD-Fc (human, UniProt P04626 23-652)
T1 construct: extracellular domain; Produced in FreeStyle 293F cells; also called HER2-ECD Fc fusion protein
measurementDescription: ELISA on HER2-ECD-Fc; antibody at 5 × 10^-4 µg/mL
measuredParameter: absorbance

1. hz39D2 (antibody, V domains shown, Humanized antibody, captured as IgG by anti-human IgG in SPR; also called humanized 39D2 antibody) VH: QVQLVQSGSELKKPGASVKVSCKASGYTFTNYGVNWVRQAPGQGLEWMGWINTHTGEPTYAEEFKGRFVFSLDTSVSTAYLQISSLKAEDTAVYYCARDDYYVRVDYWGQGTTVTVSS VL: DIQMTQSPSSLSASVGDRVTITCKASQDINSYLSWFQQKPGKAPKTLIYRANRLVDGVPSRFSGSGSGQDYTLTISSLQPEDFATYYCLQYDEFPWTFGQGTKVEIK; 0.47
2. 1G3 (antibody, V domains shown) VH: EVQLQQSGAELVKPGASVKLSCTASDFNIVDTYMHWVKQRPEQGLEWIGRIDPANGYTRYDPNFQGKATITADTSSNTAYLQLSSLTSEDTAVYYCARYYYGFYAMDYWGQGTTVTVSS VL: DIVMTQSHKFMSTSVGDRVSITCKASQDVSTAVAWYQQKPGQSPKLLIYSASYRYTGVPDRFTGSGSGTDFTFTISSVQAEDLAVYYCQQHYSTPPTFGGGTKLELK; 0.35
3. 24D3 (antibody, V domains shown) VH: EVKLVESGGGLVKPGGSLKLSCAASGFTFSSCAMSWVRQTPEKRLEWVATISGGGSYTYYPDSVKGRFTISRDNAKNTLYLQMSSLRSEDTAMYYCARHGGYESWFPYWGQGTLVTVSA VL: DIVMTQSPLSLPVSLGDQASISCRSSQSLVHSNGNTYLHWYLQKPGQSPKLLIYKVSNRFSGVPDRFSGSGSGTDFTLKISRVEAEDLGVYFCSQSTHVPPWTFGGGTKLEIK; 0.22
4. hz8G11 (antibody, V domains shown, Humanized antibody, detected with anti-human IgG-HRP; also called humanized 8G11 antibody) VH: QVQLVQSGQEVKKPGASVKVSCKASGYSFTGYYMHWVRQAPGQGLEWIGHINPNNGGTSYNQKFKGRTTLTVDKSISTAYMELSRLRSDDTAVYYCAREEAFAYWGQGTLVTVSS VL: DIQMTQSPSSLSASVGDRVTISCRASQDISNYLNWYQQKPGKAPKLLIYYTSRLHSGVPSRFSGSGSGTDFSLTISSLQPEDIATYYCQQGITPPWTFGGGTKVEIK; 0.34

Next binder, please.
*Q* Need absorbance, item hz2G10 (antibody, V domains shown, Humanized antibody, detected with anti-human IgG-HRP; Only the variable domains are tied to the name; also called humanized 2G10 antibody) VH: EVQLVESGGGLVQPGGSLRLSCAASGFTFSDYYMYWVRQAPGKGLEWVAYINSGGGSTYYPDTVKGRFTISRDNAKNSLYLQMNSLRAEDTAVYYCAREALYDYDYAMDYWGQGTTVTVSS VL: DIVMTQSPLSLSVTPGQPASISCKSSQSLLYSNGKTYLNWLLQKPGQSPQRLIYLVSKLDSGVPDRFSGSGSGTDFTLKISRVEAEDVGVYYCVQGTHFPLTFGGGTKVEIK
*A* 0.12

Source of measurements: patent US20260028418A1
